The measured values listed here are drawn from patent US10745382B2.

Biological target: PD-1/PD-L1 (Homo sapiens, UniProt Q9NZQ7)
Construct: made in house; host or cells: HEK293T
Sequence (Q9NZQ7 with tags, fused parts or gaps): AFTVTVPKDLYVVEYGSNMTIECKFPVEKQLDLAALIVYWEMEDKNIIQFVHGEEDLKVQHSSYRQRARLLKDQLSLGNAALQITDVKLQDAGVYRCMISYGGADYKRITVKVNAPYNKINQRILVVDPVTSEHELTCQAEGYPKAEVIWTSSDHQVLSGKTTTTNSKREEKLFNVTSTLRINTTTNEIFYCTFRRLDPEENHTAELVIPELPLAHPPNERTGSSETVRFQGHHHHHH
Experiment: PD-1/PD-L1 Homogenous Time-Resolved Fluorescence (HTRF) binding assay
Details: PD-L1-His 10 nM, PD-1-Ig 20 nM; value given as range class; read-out: Range or IC50
pIC50: −log10 of the molar value.
Here, each record is paired with measured pIC50 data.

Cc1cc(C(=O)N2CCOCC2)ccc1-c1cccc(COc2cc(OCc3cncc(C#N)c3)c(CNC(CO)CO)cc2Cl)c1C [Example 2349] | 7.00 to 8.00
Cc1c(COc2cc(OCc3cncc(C#N)c3)c(CNC(C)(CO)CO)cc2Cl)cccc1-c1cccc(OCCC(C)(C)O)c1Cl [Example 2080] | 8.00 to 9.68

Turning now to a further record.
**Query** Entry Cc1c(COc2cc(OCc3cncc(C#N)c3)c(C(C)N[C@@H](CO)C(=O)O)cc2Cl)cccc1-c1cccc(OCCCN2CC[C@@H](O)C2)c1C (stereo partly drawn) [Example 4141] has what pIC50?
**Result** 8.00 to 9.68

====

Molecular target: PD-1/PD-L1 (Homo sapiens, UniProt Q9NZQ7)
Construct: made in house; host or cells: HEK293T
Experiment: PD-1/PD-L1 Homogenous Time-Resolved Fluorescence (HTRF) binding assay
Settings: PD-L1-His 10 nM, PD-1-Ig 20 nM; value given as range class; read-out: Range or IC50
Observation Type: IC50

**Query** Entry Cc1c(COc2cc(OCc3cncc(C(N)=O)c3)c(CN[C@](C)(CO)C(=O)O)cc2Cl)cccc1-c1cccc(OCCCN2CCC(CO)(C(=O)O)CC2)c1Cl [Example 1116] has what IC50?
**Result** 0.21 to 10 nM

**Query** Entry Cc1c(COc2cc(OCc3cncc(C#N)c3)c(CN[C@@](C)(CO)C(=O)O)cc2Cl)cccc1-c1cccc(OCC2(CN3CC[C@@H](O)C3)CC2)c1C [Example 2348] has what IC50?
**Result** 0.21 to 10 nM

**Query** Entry Cc1c(COc2cc(OCc3cncc(C#N)c3)c(CNC(CO)CO)cc2Cl)cccc1-c1cccc(Oc2cccc3c2CCNC3=O)c1C [Example 2354] has what IC50?
**Result** 10 to 100 nM

**Query** Entry Cc1cccc(C)c1COc1cc(OCc2cccc(-c3cccc(OCCCN4CC[C@@H](O)C4)c3C)c2C)c(Cl)cc1CNC(C)(CO)CO [Example 4514] has what IC50?
**Result** 100 to 2000 nM

**Query** Entry Cc1c(COc2cc(OCc3cncc(C#N)c3)c(CN(C)C(C)(CO)CO)cc2Cl)cccc1-c1cccc(OCCCN2CC[C@@H](O)C2)c1Cl [Example 2076] has what IC50?
**Result** 0.21 to 10 nM

**Query** Entry CCN(CC)C(=O)c1cccc(-c2cccc(COc3cc(OCc4cncc(C#N)c4)c(CNC(CO)CO)cc3Cl)c2C)c1C [Example 4044] has what IC50?
**Result** 100 to 2000 nM

**Query** Entry Cc1c(COc2cc(OCc3cncc(C#N)c3)c(CNC(CO)CO)cc2Cl)cccc1-c1cccc(OCCCNC[C@H](O)CO)c1C [Example 2293] has what IC50?
**Result** 0.21 to 10 nM

====

Target: PD-1/PD-L1 (Homo sapiens, UniProt Q9NZQ7)
Construct: made in house; host or cells: HEK293T
Assay: PD-1/PD-L1 Homogenous Time-Resolved Fluorescence (HTRF) binding assay
Conditions: PD-L1-His 10 nM, PD-1-Ig 20 nM; value given as range class; read-out: Range or IC50
Observation Type: IC50

Cc1c(COc2cc(OCc3cncc(C#N)c3)c(CN3CCCC[C@H]3C(=O)O)cc2Cl)cccc1-c1cccc(OC/C=C/CN2CC[C@@H](O)C2)c1 | 10 to 100 nM
Cc1c(COc2cc(OCc3cncc(C#N)c3)c(CN3CCCC[C@H]3C(=O)O)cc2Cl)cccc1-c1cccc(OCCCN2CCC(O)(c3ccccc3)C2)c1C (some centres unmarked) | 0.21 to 10 nM
Cc1c(COc2cc(OCc3cncc(S(C)(=O)=O)c3)c(CN3CCCC[C@H]3C(=O)O)cc2Cl)cccc1-c1cccc(OCCCN2CC[C@@H](O)C2)c1C | 0.21 to 10 nM
Cc1c(COc2cc(OCc3cncc(C#N)c3)c(CNC(C)(CO)CO)cc2Cl)cccc1-c1cccc(OC[C@H]2CCN(CC(O)CO)C2)c1Cl (some centres unmarked) | 0.21 to 10 nM
Cc1c(COc2cc(OCc3cncc(C#N)c3)c(CO)cc2Cl)cccc1-c1cccc(OCCCN(C)C[C@H](O)CO)c1Cl | 0.21 to 10 nM

Turning now to a further record.
**Query** Entry `Cc1c(COc2cc(OCc3cncc(C#N)c3)c(CN3CCCC[C@H]3C(=O)Oc3ccc([N+](=O)[O-])cc3)cc2Cl)cccc1-c1cccc(OCCCN2CC[C@@H](O)C2)c1C` has what IC50?
**Result** 10 to 100 nM

====

Molecular target: PD-1/PD-L1 (Homo sapiens, UniProt Q9NZQ7)
Construct: made in house; host or cells: HEK293T
Test: PD-1/PD-L1 Homogenous Time-Resolved Fluorescence (HTRF) binding assay
Conditions: PD-L1-His 10 nM, PD-1-Ig 20 nM; value given as range class; read-out: Range or IC50
Observation Type: IC50

Would you please look over these solved cases?
Cc1c(COc2cc(OCc3cncc(C#N)c3)c(CN3CCCC[C@H]3C(=O)O)cc2Cl)cccc1-c1cccc(OCCCN(C)CCO)c1C [Example 2233] | 0.21 to 10 nM
Cc1c(COc2cc(OCc3cncc(C#N)c3)c(CN[C@@](C)(CO)C(=O)O)cc2Cl)cccc1-c1cccc(OCCCN2CC[C@H](CO)[C@H](O)C2)c1C [Example 2261] | 0.21 to 10 nM
CCC(CO)(CO)NCc1cc(Cl)c(OCc2cccc(-c3cccc(OCCCN4CCCC(CO)C4)c3C)c2C)cc1OCc1cncc(C#N)c1 (stereo not drawn) [Example 2283] | 0.21 to 10 nM
Cc1c(COc2cc(OCc3cncc(C(N)=O)c3)c(CN[C@H](CO)C(=O)O)cc2Cl)cccc1-c1cccc(OCCCN2CCC(O)(C(=O)O)CC2)c1 [Example 1032] | 0.21 to 10 nM
Cc1c(COc2cc(OCc3cncc(C#N)c3)c(CNC(CO)CO)cc2Cl)cccc1-c1cccc(C(=O)N2CCCC2)c1C [Example 4038] | 10 to 100 nM

Turning now to a further record.
**Query** Entry Cc1c(OCCCN2CC[C@@H](O)C2)cccc1-c1cccc(COc2cc(OCC#N)c(CNC(CO)CO)cc2Cl)c1Cl [Example 2314] has what IC50?
**Result** 0.21 to 10 nM

====

Target: PD-1/PD-L1 (Homo sapiens, UniProt Q9NZQ7)
Construct: made in house; host or cells: HEK293T
Assay: PD-1/PD-L1 Homogenous Time-Resolved Fluorescence (HTRF) binding assay
Details: PD-L1-His 10 nM, PD-1-Ig 20 nM; value given as range class; read-out: Range or IC50
Here, each record is paired with measured IC50 data.

**Query** Entry CNC(=O)c1cccc(-c2cccc(COc3cc(OCc4cc(F)cc(F)c4)c(CN4C[C@H](O)C[C@H]4C(=O)O)cc3Cl)c2C)c1C [Example 4025] has what IC50?
**Result** 100 to 2000 nM

**Query** Entry Cc1c(COc2cc(OCc3cncc(C#N)c3)c(CN[C@](C)(CO)C(=O)O)cc2Cl)cccc1-c1cccc(OCCCN2CCC(CO)(C(=O)O)CC2)c1C [Example 1112] has what IC50?
**Result** 0.21 to 10 nM

**Query** Entry Cc1c(COc2cc(OCc3ccc(F)c(F)c3)c(CNC(CO)CO)cc2Cl)cccc1-c1cccc(OCCCN2CC[C@@H](O)C2)c1C [Example 4509] has what IC50?
**Result** 0.21 to 10 nM

**Query** Entry Cc1c(COc2cc(OCc3cc(F)cc(F)c3)c(CO)cc2Cl)cccc1-c1cccc(OCCCN2CC[C@@H](O)C2)c1C [Example 4522] has what IC50?
**Result** 10 to 100 nM

**Query** Entry Cc1c(COc2cc(OCc3cncc(C#N)c3)c(CNC(CO)CO)cc2Cl)cccc1-c1cccc(OCCCNC[C@H](O)CO)c1Cl [Example 2036] has what IC50?
**Result** 0.21 to 10 nM

**Query** Entry Cc1c(COc2cc(OCc3cc(F)cc(F)c3)c(CNC(C)(CO)CO)cc2Cl)cccc1-c1cccc(OCCCN2CC[C@@H](O)C2)c1C [Example 4520] has what IC50?
**Result** 0.21 to 10 nM

====

Biological target: PD-1/PD-L1 (Homo sapiens, UniProt Q9NZQ7)
Construct: made in house; host or cells: HEK293T
Test: PD-1/PD-L1 Homogenous Time-Resolved Fluorescence (HTRF) binding assay
Details: PD-L1-His 10 nM, PD-1-Ig 20 nM; value given as range class; read-out: Range or IC50
pIC50: −log10 of the molar value.
Observation Type: pIC50

Cc1c(COc2cc(OCc3cncc(C#N)c3)c(CN3CCCC[C@H]3C(=O)O)cc2Cl)cccc1-c1cccc(OCCCN2CCC(O)(C(=O)O)CC2)c1C | 8.00 to 9.68
Cc1c(COc2cc(OCc3cncc(C#N)c3)c(CN[C@](C)(CO)C(=O)O)cc2Cl)cccc1-c1cc(C#Cc2ccccc2)cc(OCCCN2CC[C@@H](O)C2)c1 | 5.00 to 5.70
Cc1c(COc2ccc(CN3CCCC[C@H]3C(=O)O)c(C)c2Cl)cccc1-c1cccc(OCCCN2CC[C@@H](O)C2)c1C | 7.00 to 8.00

**Query** Entry `Cc1c(COc2cc(OCc3cncc(C#N)c3)c(CN3CC[C@@H](O)C3)cc2Cl)cccc1-c1cccc(OCCCN2CC[C@@H](O)C2)c1C` has what pIC50?
**Result** 8.00 to 9.68

**Query** Entry Cc1c(COc2cc(OCc3cncc(C#N)c3)c(CN3CCCC[C@H]3C(=O)O)cc2Cl)cccc1-c1cccc(OCCCN2CCCC(C(N)=O)C2)c1C (some centres unmarked) has what pIC50?
**Result** 8.00 to 9.68

**Query** Entry `Cc1c(CCCCN2CC[C@@H](O)C2)cccc1-c1cccc(COc2cc(OCc3cncc(C#N)c3)c(CNC(C)(CO)CO)cc2Cl)c1C` has what pIC50?
**Result** 8.00 to 9.68

**Query** Entry `Cc1c(COc2cc(OCc3cncc(C#N)c3)c(CNC(C)(CO)CO)cc2Cl)cccc1-c1cccc(OCCCN2CC[C@@H](O)C2)c1Cl` has what pIC50?
**Result** 8.00 to 9.68

**Query** Entry `CC(CO)(CO)NCc1cc(Cl)c(OCc2cccc(-c3cccc(OCCCN4CC[C@@H](O)C4)c3Cl)c2Cl)cc1OCc1cc(C#N)ccc1F` has what pIC50?
**Result** 8.00 to 9.68

**Query** Entry `Cc1c(COc2cc(OCc3cncc(C#N)c3)c(CN[C@](C)(CO)C(=O)O)cc2Cl)cccc1-c1cccc(OCCCN2CCCCC2)c1Cl` has what pIC50?
**Result** 8.00 to 9.68

**Query** Entry `Cc1c(COc2cc(OCc3cncc(C#N)c3)c(CN[C@H](C(=O)O)C(C)C)cc2Cl)cccc1-c1cccc(OCCCN2CC[C@@H](O)C2)c1C` has what pIC50?
**Result** 8.00 to 9.68

**Query** Entry `Cc1c(COc2cc(OCc3cncc(C#N)c3)c(CNC[C@H](O)CO)cc2Cl)cccc1-c1cccc(OCCCN2CC[C@H](O)[C@@H](O)C2)c1Cl` has what pIC50?
**Result** 8.00 to 9.68

**Query** Entry `Cc1c(COc2cc(OCc3cncc(C#N)c3)c(CN3C[C@@H](O)C[C@H]3C(=O)O)cc2Cl)cccc1-c1cccc(C(=O)N2CCOCC2)c1C` has what pIC50?
**Result** 7.00 to 8.00

**Query** Entry `Cc1c(COc2cc(OCc3cncc(C#N)c3)c(CN[C@](C)(CO)C(=O)O)cc2Cl)cccc1-c1cccc(OCCCN2CC(N(C)C)C2)c1Cl` has what pIC50?
**Result** 8.00 to 9.68

**Query** Entry `Cc1c(COc2cc(OCc3cncc(C#N)c3)c(CN3CCCC[C@H]3C(=O)O)cc2Cl)cccc1-c1cccc(OCCCN2CC[C@H](CO)[C@H](O)C2)c1C` has what pIC50?
**Result** 8.00 to 9.68

**Query** Entry `Cc1c(COc2cc(OCc3cncc(C#N)c3)c(CN(C)[C@@H](CO)C(=O)O)cc2Cl)cccc1-c1cccc(OCCCN2CC[C@@H](O)C2)c1C` has what pIC50?
**Result** 8.00 to 9.68

**Query** Entry Cc1c(COc2cc(OCc3cncc(S(C)(=O)=O)c3)c(CN[C@H](CO)C(=O)O)cc2Cl)cccc1-c1cccc(OCCCN2CCC(CO)(C(=O)O)C2)c1C (some centres unmarked) has what pIC50?
**Result** 8.00 to 9.68

**Query** Entry `Cc1c(COc2cc(OCc3cncc(C(N)=O)c3)c(CN3CCCC[C@H]3C(=O)O)cc2Cl)cccc1-c1cccc(OCCCN2CCC(CO)(C(=O)O)CC2)c1C` has what pIC50?
**Result** 8.00 to 9.68

**Query** Entry `Cc1c(COc2cc(OCc3cncc(C#N)c3)c(CN[C@@H](CNC(=O)OC(C)(C)C)C(=O)O)cc2Cl)cccc1-c1cccc(C(=O)N2CCOCC2)c1C` has what pIC50?
**Result** 5.70 to 7.00

**Query** Entry `Cc1c(COc2cc(OCc3cc(Cl)cc(Cl)c3)c(CN3CCCC[C@H]3C(=O)O)cc2Cl)cccc1-c1cccc(OCCCN2CC[C@@H](O)C2)c1C` has what pIC50?
**Result** 8.00 to 9.68

**Query** Entry CCOC(=O)C1(CO)CCN(CCCOc2cccc(-c3cccc(COc4cc(OCc5cncc(C#N)c5)c(CN5CCCC[C@H]5C(=O)O)cc4Cl)c3C)c2Cl)C1 (some centres unmarked) has what pIC50?
**Result** 8.00 to 9.68

**Query** Entry `Cc1c(COc2cc(OCc3cncc(C#N)c3)c(CN[C@](C)(CO)C(=O)O)cc2Cl)cccc1-c1cccc(OCCCN2CCC(O)CC2)c1C` has what pIC50?
**Result** 8.00 to 9.68

**Query** Entry Cc1c(COc2cc(OCc3cncc(C#N)c3)c(CN[C@@](C)(CO)C(=O)O)cc2Cl)cccc1-c1cccc(OCCCN2CCCC(CO)C2)c1C (some centres unmarked) has what pIC50?
**Result** 8.00 to 9.68

**Query** Entry `CN(CCCOc1cccc(-c2cccc(COc3cc(OCc4cncc(C#N)c4)c(CN[C@](C)(CO)C(=O)O)cc3Cl)c2Cl)c1Cl)C[C@H](O)CO` has what pIC50?
**Result** 8.00 to 9.68
